Test: CCTE_Shafer_MEA_dev_per_burst_interspike_interval: CCTE's Neural Network Formation Assay for Burst Interspike Interval, Shafer Lab (AID 2284044);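 further: mean spike spacing inside bursts as AUC over recordings on days 5 7 9 12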
Description: CCTE_Shafer_MEA_dev assay is conducted using Axion Biosystems 48 well microelectrode array (MEA) plates and Maestro recording system. Each well of the MEA plate contains a grid of 16 microelectrodes embedded in the culture surface. Electrically active cells, such as neurons, can be cultured over the electrodes, and electrical activity in these cells can be recorded extracellularly. […]
Activity calls are given as the source filed them. How the source made its calls: active means hit-call score of the fitted dose curve at least 0.9, where 1 is the maximum; inactive means score below 0.9.
API: response.call in true (active), false (inactive)

I would be grateful if you could indicate the recorded call for O.O.O.O.O.[Cd+2].[Cd+2].[Cl-].[Cl-].[Cl-].[Cl-] . true

Give the logged outcome of this assay for the following compound: Cn1nc(C(F)(F)F)c(CS(=O)(=O)C2=NOC(C)(C)C2)c1OC(F)F true

Status in this test for Cc1ccc(OP(=O)(Oc2ccc(C)cc2)Oc2ccc(C)cc2)cc1 (tested in a mixture with another compound) ? false

----------
Target: Cellular tumor antigen p53 (Homo sapiens) (UniProt P04637)
Sequence (P04637 whole entry, looked up): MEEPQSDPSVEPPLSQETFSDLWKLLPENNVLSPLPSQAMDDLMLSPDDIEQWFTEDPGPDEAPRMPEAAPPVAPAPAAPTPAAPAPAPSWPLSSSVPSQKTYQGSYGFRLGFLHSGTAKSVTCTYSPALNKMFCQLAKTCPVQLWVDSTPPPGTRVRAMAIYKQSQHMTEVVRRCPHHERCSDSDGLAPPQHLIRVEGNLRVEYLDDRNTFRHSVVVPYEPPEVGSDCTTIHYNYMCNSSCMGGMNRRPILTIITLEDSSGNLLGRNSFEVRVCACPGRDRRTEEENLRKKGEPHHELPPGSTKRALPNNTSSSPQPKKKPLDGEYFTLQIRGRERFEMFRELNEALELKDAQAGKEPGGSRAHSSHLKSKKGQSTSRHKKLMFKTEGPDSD
Assay: TOX21_p53_BLA_p5_ratio: Tox21 HCT-116 p53 Agonism Beta-lactamase Assay, Ratio, Phase 5 (AID 2283599)
Records with an inconclusive call do not appear. Calls of active or inactive are those of the source. How the source made its calls: active means hit-call score of the fitted dose curve at least 0.9, where 1 is the maximum; inconclusive means response in the unintended direction; inactive means score below 0.9.
Select the matching outcome among y (active), n (inactive)

Worked set:
- molecule: "C=CCc1cc(OC)c2c(c1)OCO2"
  assigned_label: "n"
- molecule: "O=C(O)c1ccc2[nH]cc(CCCCN3CC=C(c4ccccc4)CC3)c2c1"
  assigned_label: "n"
- molecule: "C[C@@H](Cc1ccccc1)NCCC(c1ccccc1)c1ccccc1"
  assigned_label: "n"
- molecule: "O=S(=O)(Cl)Cl"
  assigned_label: "n"
- molecule: "CC=CCC#N"
  assigned_label: "n"

I would be grateful if you could indicate the recorded call for C/C(=C\c1csc(C)n1)[C@@H]1C[C@@H]2O[C@]2(C)CCC[C@H](C)[C@H](O)[C@@H](C)C(=O)C(C)(C)[C@@H](O)CC(=O)O1 . y

Dear all, I need the recorded test outcome for c1cc2c(c(N3CCNCC3)c1)OCCO2 , thank you. n

Which outcome was assigned to CC(C)[C@@]1(NC(=O)[C@@H]2C[C@@H]3c4cccc5[nH]cc(c45)C[C@H]3N(C)C2)O[C@@]2(O)[C@@H]3CCCN3C(=O)[C@H](Cc3ccccc3)N2C1=O in this test? n

State the result this test recorded for CCCC[N+]1(C)CCCC1 (tested in a mixture with another compound) . n

Fill in: this test's call for CCCN(CC1CC1)c1c([N+](=O)[O-])cc(C(F)(F)F)cc1[N+](=O)[O-] is ___ n

How was O=c1oc2ccccc2c(O)c1C1CCCc2ccccc21 (stereo unspecified) classified in this test? n

Give the logged outcome of this assay for the following molecule: C1CN(P2(N3CC3)=NP(N3CC3)(N3CC3)=NP(N3CC3)(N3CC3)=N2)CCO1 (stereo unspecified) n

Hi, do you know how CCC(C(N)=O)N1CCCC1=O (stereo unspecified) came out in this test? n

What did the test return for CNCC(O)c1ccc(O)cc1 (stereo unspecified) ? n

Record lookup: outcome of this test for CN(C)[C@H](Cc1ccccc1)c1ccccc1 ? n

----------
Experiment: ATG_E_Box_CIS: Attagene CIS-FACTORIAL HepG2 Assay for human Enhancer Box (E-box) (AID 2282936)
Conditions: HepG2 E-box cis-reporter transcription, actives raise or lower the signal
Active and inactive are the calls of the source. How the source made its calls: active means hit-call score of the fitted dose curve at least 0.9, where 1 is the maximum; inactive means score below 0.9.
Outcome field: choose from TRUE (active), FALSE (inactive)

- compound: "CN(C)N"
  assigned_label: "FALSE"

Write down the call the test reported for this compound. Item: O=C(NCNC(=O)NC1C(=O)NC(=O)N1CO)NC1C(=O)NC(=O)N1CO (configuration not stated) FALSE

Could you kindly confirm the outcome this assay logged for CCCCCCCCCCCC#N ? FALSE

----------
Molecular target: Cellular tumor antigen p53 (Homo sapiens) (UniProt P04637)
Experiment: TOX21_p53_BLA_p2_ratio: Tox21 HCT-116 p53 Agonism Beta-lactamase Assay, Ratio, Phase 2 (AID 2283592)
Inconclusive results are not listed. Activity calls are given as the source filed them. How the source made its calls: active means hit-call score of the fitted dose curve at least 0.9, where 1 is the maximum; inconclusive means response in the unintended direction; inactive means score below 0.9.
Give one outcome, nothing more. List: 1.0 (active), 0.0 (inactive)

A selection of reference data follows.
- molecule: "COC(=O)COc1ccc(Cl)cc1Cl"
  assigned_label: 0.0
- molecule: "CC[N+](C)(CC)CCOC(=O)C(O)(c1ccccc1)c1ccccc1"
  assigned_label: 0.0
- molecule: "CNCC(O)c1ccc(O)cc1 (centres undefined)"
  assigned_label: 0.0
- molecule: "NNC(=O)c1cccnc1"
  assigned_label: 0.0
- molecule: "CC(Cl)(Cl)[N+](=O)[O-]"
  assigned_label: 0.0

What did this assay record as the result for C/C(=C\c1csc(C)n1)[C@@H]1C[C@@H]2O[C@]2(C)CCC[C@H](C)[C@H](O)[C@@H](C)C(=O)C(C)(C)[C@@H](O)CC(=O)O1 ? 1.0

GET /call?item= CN1CCc2cc(Cl)c(O)cc2[C@H]2c3ccccc3CC[C@@H]21 returns the recorded outcome of this test. 0.0

Hey, what did the test say about CC(=O)c1cc2c(cc1C)C(C)(C)C(C)CC2(C)C (centres undefined) ? 0.0

For CN(C)CCC#N , what call appears in the results of this test? 0.0

----------
Biological target: rat Monoamine Oxidase, MAO-B, Central (MAOBC), Maob (gene 25750)
Assay: NVS_ENZ_rMAOBC: NovaScreen (NVS) Enzymatic Assay for rat Monoamine Oxidase, MAO-B, Central (MAOBC) (AID 2283238)
Inconclusive results are not listed. Active and inactive are the calls of the source. How the source made its calls: active means hit-call score of the fitted dose curve at least 0.9, where 1 is the maximum; inconclusive means response in the unintended direction; inactive means score below 0.9.
Pick one: active, inactive

Solved entries:
- structure_notation: "Oc1ccc2ccccc2c1"
  assigned_label: "active"
- structure_notation: "CCOC(=O)c1ccc(O)cc1"
  assigned_label: "inactive"

How was O=C(NS(=O)(=O)/C=C/c1cccs1)c1ccc(F)cc1Br classified in this test? inactive

----------
Test: ATG_GLI_CIS: Attagene CIS-FACTORIAL HepG2 Assay for human Zinc Finger Protein GLI1 (AID 2282945)
Conditions: HepG2, Attagene cis-factorial reporter mRNA, GLI element; actives raise or lower the signal
Active and inactive are the calls of the source. How the source made its calls: active means hit-call score of the fitted dose curve at least 0.9, where 1 is the maximum; inactive means score below 0.9.
Give one outcome, nothing more. List: 1 = active, 0 = inactive

Solved entries (count: 8):
- compound: "CCCCCc1cc(O)cc(O)c1"
  assigned_label: 0
- compound: "Oc1ccc(C2(c3ccc(O)cc3)c3ccccc3-c3ccccc32)cc1"
  assigned_label: 1
- compound: "CSc1nc(N=[N+]=[N-])nc(NC(C)C)n1"
  assigned_label: 0
- compound: "Nc1c(Cl)c(Cl)c(Cl)c(Cl)c1Cl"
  assigned_label: 0
- compound: "O=[N+]([O-])c1ccc(Cl)cc1"
  assigned_label: 0
- compound: "CC(C)COP(=O)(OCC(C)C)OCC(C)C"
  assigned_label: 0
- compound: "N#Cc1cccc(C#N)c1"
  assigned_label: 0
- compound: "CC1OC(C)OC(C)O1 (centres undefined)"
  assigned_label: 0

How was CN1C(=O)CCS(=O)(=O)C1c1ccc(Cl)cc1 (centres undefined) classified in this test? 0

Dear all, I need the recorded test outcome for CN(C)C(=O)C(c1ccccc1)c1ccccc1 , thank you. 0

Please indicate how the test categorized CCCCCCCCCCCCCCCC[N+](C)(C)C . 0

Called result for Clc1ccc(-c2ccccc2)cc1 0

Test call, this compound: CCOP(O)OCC 0

----------
Target: Cellular tumor antigen p53 (Homo sapiens) (UniProt P04637)
Experiment: TOX21_p53_BLA_p4_ratio: Tox21 HCT-116 p53 Agonism Beta-lactamase Assay, Ratio, Phase 4 (AID 2283601)
Results filed as inconclusive are left out. Active and inactive are the calls of the source. The calls were made as follows: active = hit-call score of the fitted dose curve at least 0.9, where 1 is the maximum; inconclusive = response in the unintended direction; inactive = score below 0.9.
Select the matching outcome among t = active, f = inactive

- compound: "C[C@H](N)[C@H](O)c1ccc(O)c(O)c1"
  assigned_label: "f"
- compound: "NC(=O)CN1CCCC1=O"
  assigned_label: "f"
- compound: "O=C1Nc2ccc(Cl)cc2C(c2ccccc2Cl)=NC1O (stereo not given)"
  assigned_label: "f"

Dear all, I need the recorded test outcome for CCCC(=O)OC(C(Cl)(Cl)Cl)P(=O)(OC)OC (stereo not given) , thank you. f

Check the results log: what was the call for CCCCCCCCn1cc[n+](C)c1 ? f

----------
Target: X-box-binding protein 1 (Homo sapiens)
Assay: ATG_Xbp1_CIS: Attagene CIS-FACTORIAL HepG2 Assay for human X-box Binding Protein 1 (XBP1) (AID 2282972)
Details: HepG2 XBP1 cis-element reporter, Attagene multiplex; actives raise or lower the signal
Procedure: ATG_CIS is a cell-based, multiplexed-readout assay that uses HepG2, a human liver cell line, with measurements taken at 24 hours after chemical dosing in a 24-well plate.ATG_Xbp1_CIS is one of 52 assay component(s) measured or calculated from the ATG_CIS assay. […] This assay endpoint, ATG_Xbp1_CIS, was analyzed with bidirectional fitting relative to DMSO as the negative control and baseline of activity. […]
The source made the active and inactive calls. How the source made its calls: active means hit-call score of the fitted dose curve at least 0.9, where 1 is the maximum; inactive means score below 0.9.
Please state which outcome applies, choosing from 1 (yes) = active, 0 (no) = inactive

- structure_notation: "N#CCCCl"
  tgt: "X-box-binding protein 1 (Homo sapiens)"
  assigned_label: "0 (no)"
- structure_notation: "CCc1cccc(C)c1N(C(=O)CCl)[C@@H](C)COC"
  tgt: "X-box-binding protein 1 (Homo sapiens)"
  assigned_label: "0 (no)"
- structure_notation: "O=C(O)CCl"
  tgt: "X-box-binding protein 1 (Homo sapiens)"
  assigned_label: "0 (no)"

As a next step, examine the molecule that follows.
Can you look up the reported call for CCOP(O)OCC for me? 0 (no)
